Assay: Plasma pharmacokinetics
Type: in vivo, human
Conditions: human, plasma, iv, 15 mg/m2
Measured property: half-life (min)
Express it in min; write the number only.

QUERY: Which value of half-life has been reported for CC(C)C[C@H](NC(=O)[C@H](CCc1ccccc1)NC(=O)CN1CCOCC1)C(=O)N[C@@H](Cc1ccccc1)C(=O)N[C@@H](CC(C)C)C(=O)[C@@]1(C)CO1 in the records?
RESULT: 28.9

====

Assay: Plasma pharmacokinetics
Type: in vivo, human
Settings: human, plasma, iv, 20 mg/m2
Measured property: Cmax (µg/mL)
Express it in µg/mL; write the number only.

QUERY: Which value of Cmax has been reported for CC(C)C[C@H](NC(=O)[C@H](CCc1ccccc1)NC(=O)CN1CCOCC1)C(=O)N[C@@H](Cc1ccccc1)C(=O)N[C@@H](CC(C)C)C(=O)[C@@]1(C)CO1 [carfilzomib] in the records?
RESULT: 0.683

====

Experiment: Plasma pharmacokinetics
Type: in vivo, human
Conditions: human, plasma, iv, 20 mg/m2
Measured property: C0 (ng/mL)
Express it in ng/mL; write the number only.

QUERY: Which value of C0 has been reported for CC(C)C[C@H](NC(=O)[C@H](CCc1ccccc1)NC(=O)CN1CCOCC1)C(=O)N[C@@H](Cc1ccccc1)C(=O)N[C@@H](CC(C)C)C(=O)[C@@]1(C)CO1 [carfilzomib] in the records?
RESULT: 5450

====

Test: Plasma pharmacokinetics
Type: in vivo, human
Conditions: human, plasma, iv, 20 mg/m2
Measured property: half-life (min)
Express it in min; write the number only.

QUERY: Which value of half-life has been reported for CC(C)C[C@H](NC(=O)[C@H](CCc1ccccc1)NC(=O)CN1CCOCC1)C(=O)N[C@@H](Cc1ccccc1)C(=O)N[C@@H](CC(C)C)C(=O)[C@@]1(C)CO1 in the records?
RESULT: 17.1

====

Test: Plasma pharmacokinetics
Assay type: in vivo, human
Conditions: human, plasma, iv, 20 mg/m2
Measured property: clearance

QUERY: Which value of clearance has been reported for CC(C)C[C@H](NC(=O)[C@H](CCc1ccccc1)NC(=O)CN1CCOCC1)C(=O)N[C@@H](Cc1ccccc1)C(=O)N[C@@H](CC(C)C)C(=O)[C@@]1(C)CO1 in the records?
RESULT: 4130 mL/min

====

Assay: Plasma pharmacokinetics
Type: in vivo, human
Details: human, plasma, iv, 11 mg/m2
Measured property: C0 (ng/mL)
Express it in ng/mL; write the number only.

QUERY: Which value of C0 has been reported for CC(C)C[C@H](NC(=O)[C@H](CCc1ccccc1)NC(=O)CN1CCOCC1)C(=O)N[C@@H](Cc1ccccc1)C(=O)N[C@@H](CC(C)C)C(=O)[C@@]1(C)CO1 in the records?
RESULT: 762

====

Test: Plasma pharmacokinetics
Format: in vivo, human
Details: human, plasma, iv
Measured property: half-life

QUERY: Which value of half-life has been reported for CC(C)C[C@H](NC(=O)[C@H](CCc1ccccc1)NC(=O)CN1CCOCC1)C(=O)N[C@@H](Cc1ccccc1)C(=O)N[C@@H](CC(C)C)C(=O)[C@@]1(C)CO1 in the records?
RESULT: < 30 min

====

Test: Plasma pharmacokinetics
Type: in vivo, human
Settings: human, plasma, iv, 11 mg/m2
Measured property: Tmax (min)
Express it in min; write the number only.

QUERY: Which value of Tmax has been reported for CC(C)C[C@H](NC(=O)[C@H](CCc1ccccc1)NC(=O)CN1CCOCC1)C(=O)N[C@@H](Cc1ccccc1)C(=O)N[C@@H](CC(C)C)C(=O)[C@@]1(C)CO1 [carfilzomib] in the records?
RESULT: 9

====

Assay: Plasma pharmacokinetics
Type: in vivo, human
Settings: human, plasma, iv, 15 mg/m2
Measured property: Cmax (ng/mL)
Express it in ng/mL; write the number only.

QUERY: Which value of Cmax has been reported for CC(C)C[C@H](NC(=O)[C@H](CCc1ccccc1)NC(=O)CN1CCOCC1)C(=O)N[C@@H](Cc1ccccc1)C(=O)N[C@@H](CC(C)C)C(=O)[C@@]1(C)CO1 [carfilzomib] in the records?
RESULT: 326

====

Assay: Plasma pharmacokinetics
Format: in vivo, human
Conditions: human, plasma, iv, 11 mg/m2
Measured property: half-life (min)
Express it in min; write the number only.

QUERY: Which value of half-life has been reported for CC(C)C[C@H](NC(=O)[C@H](CCc1ccccc1)NC(=O)CN1CCOCC1)C(=O)N[C@@H](Cc1ccccc1)C(=O)N[C@@H](CC(C)C)C(=O)[C@@]1(C)CO1 in the records?
RESULT: 25.3

All figures here come from paper PMC4019989.
